Assignment: determine reported Ki for the given compounds.

With UniProtKB P56817 as the test system, CC(NC(=O)C1CNCCC1c1ccc(-c2ccccc2)cc1)c1cccc2ccccc12 (centres unmarked) [Compound 406] showed Ki of 3 to 30 µM

With UniProtKB P56817 as the test system, O=C(Nc1cc(C(F)(F)F)cc(NC(=O)c2cccc3ccccc23)c1N1CCNCC1)c1cccc2ccccc12 showed Ki of 3 to 30 µM

With UniProtKB P56817 as the test system, O=C(Nc1cc(C(F)(F)F)ccc1N1CCNCC1)Oc1cccc2ccccc12 showed Ki of 3 to 30 µM

With UniProtKB P56817 as the test system, COc1ccc(-c2ccc(N3CCNCC3)c(NC(=O)c3cccc4ccccc34)c2)cc1 showed Ki of 3 to 30 µM

With UniProtKB P56817 as the test system, O=C(Nc1ccc(-c2ccc(Cl)c(Cl)c2)cc1N1CCNCC1)c1cccc2ccccc12 showed Ki of < 3 µM

With UniProtKB P56817 as the test system, c1ccc2cc(COc3ccc4c(c3)c3c(n4Cc4ccc5ccccc5c4)CNCC3)ccc2c1 showed Ki of < 3 µM

With UniProtKB P56817 as the test system, O=C(OCc1ccc(COc2ccccc2C(F)(F)F)cc1C1=CCNCC1)c1ccc2ccccc2c1 showed Ki of < 3 µM

With UniProtKB P56817 as the test system, Cc1cc(N2CCNCC2)c(NC(=O)c2cccc3ccccc23)cc1-c1ccoc1 showed Ki of > 30 µM

----------
Assignment: determine reported Ki for the given molecules.
- measured_target: BACE (Homo sapiens)
- Sequence (P56817 46-501): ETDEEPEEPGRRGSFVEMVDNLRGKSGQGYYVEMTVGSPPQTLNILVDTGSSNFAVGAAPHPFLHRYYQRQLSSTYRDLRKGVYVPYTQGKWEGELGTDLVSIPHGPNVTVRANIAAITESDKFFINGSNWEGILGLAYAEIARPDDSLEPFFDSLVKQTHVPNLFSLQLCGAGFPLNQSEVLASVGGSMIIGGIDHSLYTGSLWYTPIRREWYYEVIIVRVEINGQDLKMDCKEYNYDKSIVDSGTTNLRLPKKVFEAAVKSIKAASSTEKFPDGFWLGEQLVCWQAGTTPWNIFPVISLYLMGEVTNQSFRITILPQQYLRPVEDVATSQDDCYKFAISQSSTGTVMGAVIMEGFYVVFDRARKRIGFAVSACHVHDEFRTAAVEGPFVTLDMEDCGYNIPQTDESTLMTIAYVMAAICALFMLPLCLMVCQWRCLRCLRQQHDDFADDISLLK

With BACE (Homo sapiens) as the test system, FC(F)Oc1ccccc1COc1ccc2c(c1)c1c(n2Cc2cccc3ccccc23)CNCC1 showed Ki of < 3 µM

With BACE (Homo sapiens) as the test system, C1=C(c2cc(COc3ccc4ccccc4c3)c(-c3ccccc3)cc2COc2ccc3ccccc3c2)CCNC1 showed Ki of < 3 µM

With BACE (Homo sapiens) as the test system, FC(F)(F)c1ccccc1OCc1ccc(COc2cccc3ccccc23)c(C2=CCNCC2)c1 showed Ki of 3 to 30 µM

With BACE (Homo sapiens) as the test system, Ic1ccccc1COc1ccc2c(c1)c1c(n2Cc2cccc3ccccc23)CNCC1 showed Ki of < 3 µM

With BACE (Homo sapiens) as the test system, O=c1cc(-c2ccccc2)nc(C2CCNCC2)n1Cc1ccccc1C(F)(F)F showed Ki of 3 to 30 µM

With BACE (Homo sapiens) as the test system, O=S(=O)(Nc1cc(C(F)(F)F)ccc1N1CCNCC1)c1cccc2ccccc12 showed Ki of > 30 µM

With BACE (Homo sapiens) as the test system, N#Cc1ccccc1-c1ccc(COc2ccc3c(c2)c2c(n3Cc3ccc4ccccc4c3)CNCC2)cc1 showed Ki of < 3 µM

With BACE (Homo sapiens) as the test system, O=C(Nc1cc(-c2ccc(S(=O)(=O)NCc3ccccc3)c(F)c2)ccc1N1CCNCC1)c1cccc2ccccc12 showed Ki of < 3 µM

With BACE (Homo sapiens) as the test system, FC(F)(F)c1ccccc1OCc1cc(-c2ccc[nH]2)c(COc2ccccc2C(F)(F)F)cc1C1=CCNCC1 showed Ki of < 3 µM

With BACE (Homo sapiens) as the test system, O=C(O)C1CCCCC1C(=O)NCC1CNCCC1c1ccc(COc2ccccc2C(F)(F)F)cc1 (stereo not shown) showed Ki of > 30 µM

With BACE (Homo sapiens) as the test system, O=C(COCc1ccccc1)OCc1ccc(COc2ccccc2C(F)(F)F)cc1C1=CCNCC1 showed Ki of 3 to 30 µM

With BACE (Homo sapiens) as the test system, O=C(Nc1cnc(-c2ccc(Cl)c(Cl)c2)nc1N1CCNCC1)c1cccc2ccccc12 showed Ki of 3 to 30 µM

With BACE (Homo sapiens) as the test system, Nc1cccc2c(NC(=O)c3ccc(COc4ccccc4C(F)(F)F)cc3C3=CCNCC3)cccc12 showed Ki of 3 to 30 µM

With BACE (Homo sapiens) as the test system, O=C(Nc1cc(C(F)(F)F)cc(NC(=O)c2ccc3ccccc3c2)c1N1CCNCC1)c1ccc2ccccc2c1 showed Ki of 3 to 30 µM

With BACE (Homo sapiens) as the test system, CCOC(=O)c1c(C)[nH]c2ccc(OCc3ccc(COc4ccccc4C(F)(F)F)cc3C3=CCNCC3)cc12 showed Ki of < 3 µM

With BACE (Homo sapiens) as the test system, O=C(Nc1cc(-c2ccc(C(F)(F)F)cc2F)ccc1N1CCNCC1)c1cccc2ccccc12 showed Ki of 3 to 30 µM

----------
So I've got pKi readings for BACE (Homo sapiens), take a look.
pKi: −log10 of the molar value.

pKi reported for this compound O=S(=O)(Nc1cc(C(F)(F)F)ccc1N1CCNCC1)c1ccc2ccccc2c1 : < 4.52

pKi reported for this compound O=C(Nc1cc(-c2cccc(Cl)c2)ccc1N1CCNCC1)c1cccc2ccccc12 : 4.52 to 5.52

pKi reported for this compound O=C(Nc1cc(-c2ccoc2)ccc1N1CCNCC1)c1cccc2ccccc12 : < 4.52

pKi reported for this compound O=C(OCc1cc(C2=CCNCC2)c(COc2ccccc2C(F)(F)F)cc1-c1ccoc1)c1cccnc1 : > 5.52

----------
- measured_target: UniProt:P56817
pKi: −log10 of the molar value.
Assignment: determine reported pKi for the given molecules.

pKi reported for this molecule CN(C)C(=O)C1CN(c2ccc(-c3ccc(C(F)(F)F)cc3)cc2NCc2ccc3ccccc3c2)CCN1 (stereo not drawn) [Compound 195] : > 5.52

pKi reported for this molecule O=C(Nc1cc(C(F)(F)F)c(-c2ccc(Cl)c(Cl)c2)cc1N1CCNCC1)c1cccc2ccccc12 [Compound 168] : > 5.52

pKi reported for this molecule COC(=O)c1cc(C2=CCNCC2)c(COc2ccccc2C(F)(F)F)cc1C1=CCNCC1 [Compound 382] : 4.52 to 5.52

pKi reported for this molecule Cc1c(COc2ccc3c(c2)c2c(n3Cc3ccc4ccccc4c3)CNCC2)cccc1C(F)(F)F [Compound 522] : > 5.52

pKi reported for this molecule O=C(Nc1cc(C(F)(F)F)c(-c2cc(Cl)ccc2Cl)cc1N1CCNCC1)c1cccc2ccccc12 [Compound 169] : > 5.52

pKi reported for this molecule COC(=O)C1CN(c2ccc(-c3ccc(C(F)(F)F)cc3)cc2NCc2ccc3ccccc3c2)CCN1 (stereo not drawn) [Compound 192] : > 5.52

pKi reported for this molecule O=S(=O)(Nc1cc(-c2ccc(Cl)c(Cl)c2)ccc1N1CCNCC1)c1ccc(-c2ccc(C(F)(F)F)cc2)cc1 [Compound 179] : 4.52 to 5.52

pKi reported for this molecule O=C(NC(Cc1ccccc1)C(=O)N1CCCC1C(=O)NCC1CNCCC1c1ccc(COc2ccccc2C(F)(F)F)cc1)OCc1ccccc1 (stereo not drawn) [Compound 223] : 4.52 to 5.52

pKi reported for this molecule O=C(Nc1cc(C(F)(F)F)ccc1N1CCNCC1)c1cccc2cccnc12 [Compound 149] : 4.52 to 5.52

pKi reported for this molecule O=C(Nc1ccc2ccccc2c1)C1CNCCC1c1ccc(-c2ccccc2)cc1 (stereo not drawn) [Compound 402] : > 5.52

pKi reported for this molecule O=C(c1cccc2ccccc12)n1c2c(c3cc(OCc4ccccc4OC(F)F)ccc31)CCNC2 [Compound 529] : > 5.52

pKi reported for this molecule O=C(NCC1CNCCC1c1ccc(COc2ccccc2C(F)(F)F)cc1)Oc1ccc2ccccc2c1 (stereo not drawn) [Compound 228] : > 5.52

pKi reported for this molecule O=C(Nc1cc(C(F)(F)F)ccc1N1CCNCC1)Oc1ccc2ccccc2c1 [Compound 151] : 4.52 to 5.52

pKi reported for this molecule O=C(Nc1cc(C(F)(F)F)ccc1N1CCNCC1)c1ccc2ccccc2c1 [Compound 113] : 4.52 to 5.52

pKi reported for this molecule O=C(Nc1cc(-c2ccc(F)c(Cl)c2)ccc1N1CCNCC1)c1cccc2ccccc12 [Compound 104] : > 5.52

pKi reported for this molecule O=C(Nc1cc(-c2ccc(S(=O)(=O)NC3CCCCC3)cc2)ccc1N1CCNCC1)c1cccc2ccccc12 [Compound 147] : > 5.52

pKi reported for this molecule CC(C)NC(=O)C1CN(c2ccc(-c3ccc(C(F)(F)F)cc3)cc2NCc2ccc3ccccc3c2)CCN1 (stereo not drawn) [Compound 193] : > 5.52

pKi reported for this molecule FC(F)(F)c1ccc(-c2cc(COc3ccccc3C(F)(F)F)c(C3=CCNCC3)cc2COc2ccccc2C(F)(F)F)cc1 [Compound 338] : 4.52 to 5.52

pKi reported for this molecule FC(F)(F)c1ccccc1OCc1cc(-c2ccco2)c(COc2ccccc2C(F)(F)F)cc1C1=CCNCC1 [Compound 346] : > 5.52

pKi reported for this molecule Cc1ccccc1Oc1ccc(N2CCNCC2)c(NC(=O)c2cccc3ccccc23)c1 [Compound 140] : 4.52 to 5.52

pKi reported for this molecule O=C(Nc1cc(F)c(-c2ccc(C(F)(F)F)cc2)cc1N1CCNCC1)c1cccc2ccccc12 [Compound 159] : > 5.52

pKi reported for this molecule O=C(Nc1cc(Br)cc(COc2ccccc2C(F)(F)F)c1N1CCNCC1)c1nccc2ccccc12 [Compound 176] : > 5.52

pKi reported for this molecule O=C(CNC(=O)C(Cc1ccccc1)NC(=O)OCc1ccccc1)NCC1CNCCC1c1ccc(COc2ccccc2C(F)(F)F)cc1 (stereo not drawn) [Compound 225] : 4.52 to 5.52

pKi reported for this molecule FC(F)(F)c1ccccc1OCc1cc(-c2ccsc2)c(COc2ccccc2C(F)(F)F)cc1C1=CCNCC1 [Compound 342] : > 5.52

pKi reported for this molecule CNCCN(C)c1ccc(-c2ccc(C(F)(F)F)cc2)cc1NCc1ccc2ccccc2c1 [Compound 226] : > 5.52

pKi reported for this molecule O=C(OCc1ccccc1-c1ccc(C2=CCNCC2)c(COc2ccccc2C(F)(F)F)c1)c1cccnc1Cl [Compound 384] : > 5.52

pKi reported for this molecule OCc1ccccc1-c1cc(COc2ccccc2C(F)(F)F)c(C2=CCNCC2)cc1COc1ccccc1C(F)(F)F [Compound 367] : > 5.52

pKi reported for this molecule O=C(Nc1cc(Oc2cccc(Cl)c2)ccc1N1CCNCC1)c1cccc2ccccc12 [Compound 139] : 4.52 to 5.52

pKi reported for this molecule O=C(NCc1cccc2ccccc12)C1CNCCC1c1ccc(COc2ccccc2C(F)(F)F)cc1 (stereo not drawn) [Compound 215] : 4.52 to 5.52

pKi reported for this molecule COc1cccc(-c2ccc(N3CCNCC3)c(NC(=O)c3cccc4ccccc34)c2)c1 [Compound 119] : < 4.52
